Every entry's value here was drawn from patent US20250066503A1.

measured.on: T1, soluble human CD3 epsilon chain (human, UniProt P07766 23-126)
T1 construct: also called CD3ε
assay.protocol: SPR
Classify: 1 when Kd is strictly less than 70 nM; -1 when Kd is not.

Solved entries:
binder: TR01H067-E22Hh/none-Hi-Kn010G3/L0215-k0 (antibody, V domains shown, one-arm) VH: QVQLVESGGGLVQPGRSLRLSCAASGFTFSNAWMHWVRQAPGKGLEWVAQIKDKSQNYATYYAESVKGRFTISRDDSKNSLYLQMNSLKTEDTAVYYCRYVHYAASYGVDAWGQGTTVTVSS VL: DIVMTQSPLSLPVTPGEPASISCRSSQPPVHSNRNTYIHWYQQKPGQAPRLLIYKVSNRFSGVPDRFSGSGSGTDFTLKISRVEAEDVGVYYCGQGTQVPYTFGQGTKLEIK
group.label: -1

binder: TR01H081-E22Hh/none-Hi-Kn010G3/L0262-k0 (antibody, V domains shown, one-arm) VH: QVQLVESGGGLVQPGRSLRLSCAASGFTFSNAWMHWVRQAPGKGLEWVAQIKDKSQNYATYYAESVKGRFTISRADSKNSIYLQMNSLKTEDTAVYYCRYVHYAAGYGVDIWGQGTTVTVSS VL: DIVMTQSPLSLPVTPGEPASISCRSSQPPVHSNRNTYLHWYQQKPGQAPRLLIYKVSNRFSGVPDRFSGSGSGTDFTLKISRVEAEDVGVYYCAQGTQVPYTFGQGTKLEIK
group.label: 1

binder: TR01H048-E22Hh/none-Hi-Kn010G3/L0000-k0 (antibody, V domains shown, one-arm) VH: QVQLVESGGGLVQPGRSLRLSCAASGFTFSNAWMHWVRQAPGKGLEWVAQIKDKSQNYATYYAESVKGRFTISRDDSKNSIYLQMNSLKTEDTAVYYCRYVHYSASYGVDIWGQGTTVTVSS VL: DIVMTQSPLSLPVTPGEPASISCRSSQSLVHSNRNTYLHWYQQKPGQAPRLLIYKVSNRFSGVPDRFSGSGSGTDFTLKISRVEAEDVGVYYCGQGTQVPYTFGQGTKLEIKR
group.label: 1

A record lists TR01H084-E22Hh/none-Hi-Kn010G3/L0271-k0 (antibody, V domains shown, one-arm) VH: QVQLVESGGGVVQPGGSLRLSCAASGFTFSNAWMHWVRQAPGKGLEWVAQIKDKSQNYATYYAESVKGRFTISRADSKNSIYLQMNSLKTEDTAVYYCRYVHYAAGYGVDIWGQGTTVTVSS VL: DIVMTQSPLSLPVTPGEPASISCRSSQPPVHSNRQTYLHWYQQKPGQAPRLLIYKVSNRFSGVPDRFSGSGSGTDFTLKISRVEAEDVGVYYCGQGTQVPYTFGQGTKLEIK . Is its Kd below 70 nM?
1
